Tested on: giant foxtail
Assay: Test A pre-/postemergence herbicide test
Format: in vivo, Setaria faberii
Conditions: Postemergence, 125 g ai/ha; 0 to 100 scale, 0 is no effect, 100 is complete control
Observable: Plant response rating, Foxtail, Giant

1) CN1CC(c2cccc(C(F)(F)F)c2)C(C(=O)Nc2ccccc2F)C1=O (stereo not shown) [Compound 277] :: 90
2) O=C1NCC(c2cccc(C3CC3)c2)C1C(=O)Nc1cccc(F)c1F (racemic) [Compound 167] :: 90
3) O=C1NCC(c2ccc(Cl)c(C(F)(F)F)c2)C1C(=O)Nc1ccccc1C(F)(F)F (racemic) [Compound 269] :: 70
4) O=C1NCC(c2cccc(C(F)(F)F)c2)C1C(=O)Nc1cccc(F)c1F (stereo not shown) [Compound 241] :: 80
5) O=C1NCC(c2cccc(OC(F)F)c2)C1C(=O)Nc1ccccc1F (stereo not shown) [Compound 223] :: 80
6) O=C1NCC(c2ccc3c(c2)OC(F)(F)O3)C1C(=O)Nc1ccccc1F (racemic) [Compound 161] :: 90
7) O=C1NCC(c2cccc(C(F)F)c2)C1C(=O)Nc1cccc(F)c1F (racemic) [Compound 211] :: 70
8) O=C1NCC(c2ccc(C(F)(F)F)nc2)C1C(=O)Nc1ccccc1F (racemic) [Compound 262] :: 60
9) Cc1ccccc1NC(=O)C1C(=O)NCC1c1cccc(OC(F)F)c1 (stereo not shown) [Compound 230] :: 70
10) Cc1cc(NC(=O)C2C(=O)NCC2c2cccc(C(F)(F)F)c2)ccc1F (racemic) [Compound 185] :: 20
11) O=C1NCC(c2cccc(OC(F)F)c2)C1C(=O)Nc1ccccc1Cl (stereo not shown) [Compound 229] :: 80
12) CN1CC(c2ccc(F)cc2)C(C(=O)Nc2cccc(F)c2F)C1=O (stereo not shown) [Compound 271] :: 90
13) O=C1NCC(c2ccc(C(F)(F)F)c(Cl)c2)C1C(=O)Nc1ccccc1C(F)(F)F (racemic) [Compound 251] :: 0

====

Test system: nutsedge, yellow
Experiment: Test C pre-/postemergence herbicide test
Type: in vivo, Cyperus esculentus
Settings: Postemergence, 125 g ai/ha; scale 0 to 100 (0 no effect, 100 complete control)
Observable: Plant response rating, Nutsedge, Yellow

1. O=C1NCC(c2cc(F)cc(F)c2)C1C(=O)Nc1ccc(F)cc1F (racemic) :: 0
2. O=C1NCC(c2cccc(OC(F)F)c2)C1C(=O)Nc1ccccc1F (centres unmarked) :: 0
3. CN1CC(c2cccc(C(F)(F)F)c2)C(C(=O)Nc2ccccc2F)C1=O (centres unmarked) :: 0
4. O=C1NCC(c2ccc(C(F)(F)F)cc2)C1C(=O)Nc1ccc(F)c(F)c1F (centres unmarked) :: 5
5. O=C1NCC(c2cccc(C(F)(F)F)c2)C1C(=O)Nc1cccc(Cl)c1F (centres unmarked) :: 0
6. O=C1NCC(c2cccc(OC(F)F)c2)C1C(=O)Nc1cccc(F)c1F (centres unmarked) :: 0
7. O=C1NCC(c2cccc(C(F)(F)F)c2)C1C(=O)Nc1ccccc1Cl (centres unmarked) :: 0
8. O=C1NCC(c2cc(F)c(F)c(F)c2)C1C(=O)Nc1ccccc1F (racemic) :: 10

====

Test system: morningglory
Experiment: Test C pre-/postemergence herbicide test
Type: in vivo, Ipomoea coccinea
Conditions: Postemergence, 31 g ai/ha; scale 0 to 100 (0 no effect, 100 complete control)
Source text: […]
Observable: Plant response rating, Morningglory

1) CN1CC(c2ccc(F)cc2)C(C(=O)Nc2cccc(F)c2F)C1=O (stereo not drawn) [Compound 271] :: 10
2) O=C1NCC(c2cccc(OC(F)F)c2)C1C(=O)Nc1ccccc1F (stereo not drawn) [Compound 223] :: 0
3) O=C1NCC(c2cccc(OC(F)F)c2)C1C(=O)Nc1ccc(F)c(F)c1F (stereo not drawn) [Compound 325] :: 5
